The entries below come with measured EC50 values attached.
# Test system: Dengue 1 virus MY97-10245
# Test protocol: High-content imaging cell-based flavivirus immunodetection (HCl-CFI) assay, Dengue 1
# Condition notes: Dengue virus, A549, 48 h, read-out: Dengue 1 virus MY97-10245 in A549 using HCl [Inhibitor/IC50] Qualified AC50

Worked cases, answers included:
>  <Compound>
CC1(C)Cc2sc(NC(=O)Cc3ccc(S(N)(=O)=O)cc3)c(C#N)c2CN1CC1CCCCC1

>  <Assayed system>
Dengue 1 virus MY97-10245

>  <Reported endpoint>
EC50

>  <Readout value>
< 100 nM

$$$$
>  <Compound>
COc1cc(CC(=O)Nc2sc3c(c2C#N)CN(CC2CC(F)(F)C2)CC3)ccc1S(C)(=O)=O

>  <Assayed system>
Dengue 1 virus MY97-10245

>  <Reported endpoint>
EC50

>  <Readout value>
100 to 1000 nM

$$$$
>  <Compound>
CC(O)(c1ccc(CC(=O)Nc2sc3c(c2C#N)CN(CC2CCCCC2)CC3)cc1)C(F)(F)F (stereo not drawn)

>  <Assayed system>
Dengue 1 virus MY97-10245

>  <Reported endpoint>
EC50

>  <Readout value>
> 1000 nM

$$$$
>  <Compound>
CS(=O)(=O)n1ccc(CC(=O)Nc2sc3c(c2C#N)CN(Cc2cccc(F)c2)CC3)c1

>  <Assayed system>
Dengue 1 virus MY97-10245

>  <Reported endpoint>
EC50

>  <Readout value>
> 1000 nM

$$$$
>  <Compound>
N#Cc1c(NC(=O)Cc2ccc3c(c2)CNS3(=O)=O)sc2c1CN(CC1CC(F)(F)C1)CC2

>  <Assayed system>
Dengue 1 virus MY97-10245

>  <Reported endpoint>
EC50

>  <Readout value>
> 1000 nM

$$$$

Query block: Returns the measured EC50 for the input compound. Input: N#Cc1c(NC(=O)Cc2ccc(S(N)(=O)=O)c(F)c2)sc2c1CN(CC1CCCCC1)CC2
Result block: 100 to 1000 nM

Provenance of the data: patent US12012417B2
